Measured On: 3T3 cell line genetically engineered to express human PDGF-R (Homo sapiens)
Construct: expressed in transfected cells; host or cells: 3T3
Assay Overview: PDGF-induced BrdU incorporation assay
Format: cell-based
Condition Context: read-out: PDGF-Induced BrdU Incorp. IC50
Threshold 4 µM: IC50 strictly smaller gives True, otherwise False.

Here's what some known entries look like.
COc1ccc2c(c1)/C(=C/c1[nH]cc(C)c1CCC(=O)O)C(=O)N2
False
O=C(CCc1c(/C=C2\C(=O)Nc3ccccc32)[nH]c2c1CCCC2)NCCN1CCOCC1
False
Cc1c[nH]c(/C=C2\C(=O)Nc3ccc(Br)cc32)c1CCC(=O)O
False
NC(=O)CCc1c(/C=C2\C(=O)Nc3ccccc32)[nH]c2c1CCCC2
True
O=C1Nc2ccccc2/C1=C/c1[nH]c2c(c1CCC(=O)N1CCOCC1)CCCC2
False
O=C(O)CCc1c(/C=C2\C(=O)Nc3ccccc32)[nH]c2c1CCCC2
True

Now consider a different compound.
Input: Is IC50 of `Cc1ccc2c(c1)/C(=C/c1[nH]c3c(c1CCC(=O)O)CCCC3)C(=O)N2` strictly below 4 µM?
Output: False
